B1: ZNF263 (parent)
chain: CSECGESFSRSSRLMSHQRTHTG

Variants of: B1
Experiment: protein stability index of a GFP-peptide fusion (GPS, HEK-293T) (PSI 1-6); higher = more stable;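 also: lentivirally expressed fusions sorted by FACS into six bins by GFP to DsRed ratio, PSI derived from sequencing read proportions per bin multiplied by bin number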
Settings: c terminus: native
ASSAY_ENDPOINT: protein stability index
API doc: respond with a numeric literal and nothing else, no unit.

What value of protein stability index has been recorded for this entry: "L14W" 1.96

What value of protein stability index has been recorded for this entry: "S11G" 3.13

What value of protein stability index has been recorded for this entry: "C1Y" 1.9

What value of protein stability index has been recorded for this entry: "R13I" 3.96

What value of protein stability index has been recorded for this entry: "M15R" 3.03

What value of protein stability index has been recorded for this entry: "S7I" 3.88

What value of protein stability index has been recorded for this entry: "E3P" 1.33

What value of protein stability index has been recorded for this entry: "M15Y" 2.83

What value of protein stability index has been recorded for this entry: "C4F" 1.24

What value of protein stability index has been recorded for this entry: "E6Q" 2.96

What value of protein stability index has been recorded for this entry: "H21K" 1.78
